Kindly state Top FACS signal_Fold change (Jurkat-NFAT-luciferase activation, normalized to ch147E11E2) for each of the entries shown.
test-target: human CD3 (human, UniProt P07766 23-207; P04234 22-171; P09693 23-182)
Sequence (P07766 23-207, chain 1 of 3): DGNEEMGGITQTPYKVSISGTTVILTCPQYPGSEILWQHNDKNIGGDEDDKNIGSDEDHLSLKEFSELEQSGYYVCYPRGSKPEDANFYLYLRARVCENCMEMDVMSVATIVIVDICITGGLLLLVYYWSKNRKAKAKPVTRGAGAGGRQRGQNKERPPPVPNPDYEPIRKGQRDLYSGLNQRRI
Sequence (P04234 22-171, chain 2 of 3): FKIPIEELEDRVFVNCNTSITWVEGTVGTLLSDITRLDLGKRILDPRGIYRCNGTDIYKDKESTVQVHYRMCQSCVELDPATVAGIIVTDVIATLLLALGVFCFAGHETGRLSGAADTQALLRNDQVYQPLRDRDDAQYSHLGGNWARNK
Sequence (P09693 23-182, chain 3 of 3): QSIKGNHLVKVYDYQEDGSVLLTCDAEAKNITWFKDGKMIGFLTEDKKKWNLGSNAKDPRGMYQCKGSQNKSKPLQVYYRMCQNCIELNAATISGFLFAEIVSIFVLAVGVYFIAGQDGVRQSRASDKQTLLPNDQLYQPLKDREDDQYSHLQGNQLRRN
protocol-details: cell-based or functional assay
One number for each entry, in fold.

Ask: Give the measured Top FACS signal_Fold change (Jurkat-NFAT-luciferase activation, normalized to ch147E11E2) of ch147E11E2 (antibody, V domains shown) VH: QVQLQQPGTELVKPGTSVKLSCKASGYTFTSYWMHWVKQRPGQGLEWIGNINPSNGATNYNEKFKSKATLTVDKSSSTAYMQLSSLTSEDSAVYYCARDRSSQYYFDYWGQGTTLTVSS VL: DIVMSQSPSSLAVSAGEKVTMSCKSSQSLLNSRSRKNYLAWYQQKPGQSPKLLIYWASTRESGVPDRFTGSGSGTDFTLTISSVQAEDLAVYYCTQSYTLRTFGGGTKLEIK .
Result: 1

Ask: Need Top FACS signal_Fold change (Jurkat-NFAT-luciferase activation, normalized to ch147E11E2) of hu147E2-L1H3b (antibody, V domains shown, humanized 147E11E2 with N55S in HCDR2 (deamidation site removed); also called hu14E2-L1H3b) VH: EVQLVQSGAEVKKPGSSVKVSCKASGYTFTSYWMHWVRQAPGQGLEWMGNINPSSGATNYNEKFKSRVTLTVDKSTSTAYMELSSLRSEDTAVYYCARDRSSQYYFDYWGQGTTVTVSS VL: DIVMTQSPDSLAVSLGERATINCKSSQSLLNSRSRKNYLAWYQQKPGQPPKLLIYWASTRESGVPDRFSGSGSGTDFTLTISSLQAEDVAVYYCTQSYTLRTFGGGTKVEIK , thanks.
Result: 0.87

Ask: I have this binder here, hu147E2-L2H4 (antibody, V domains shown, humanized 147E11E2; also called hu14E2-L2H4) VH: EVQLVQSGAEVKKPGSSVKVSCKASGYTFTSYWMHWVRQAPGQGLEWIGNINPSNGATNYNEKFKSRATLTVDKSTSTAYMELSSLRSEDTAVYYCARDRSSQYYFDYWGQGTTVTVSS VL: DIVMTQSPDSLAVSLGERATINCKSSQSLLNSRSRKNYLAWYQQKPGQSPKLLIYWASTRESGVPDRFSGSGSGTDFTLTISSLQAEDVAVYYCTQSYTLRTFGGGTKVEIK , and I need its recorded Top FACS signal_Fold change (Jurkat-NFAT-luciferase activation, normalized to ch147E11E2).
Result: 0.99

Field: next binder
Ask: Fill blank: measured Top FACS signal_Fold change (Jurkat-NFAT-luciferase activation, normalized to ch147E11E2) of the binder hu147E2-L1H4 (antibody, V domains shown, humanized 147E11E2; also called hu14E2-L1H4) VH: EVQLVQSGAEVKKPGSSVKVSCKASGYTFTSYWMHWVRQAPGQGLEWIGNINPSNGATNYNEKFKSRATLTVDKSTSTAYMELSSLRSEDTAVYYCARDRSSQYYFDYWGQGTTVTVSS VL: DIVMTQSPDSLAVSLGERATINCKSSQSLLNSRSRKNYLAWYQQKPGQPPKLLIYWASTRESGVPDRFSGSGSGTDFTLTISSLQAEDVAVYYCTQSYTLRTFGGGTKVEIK is ____.
Result: 0.92
